# subjectOfTest: human Kv1.5 (Homo sapiens, UniProt P22460)
# Construct: expressed in transfected cells; host or cells: stably transfected cells
# Sequence (P22460 whole entry): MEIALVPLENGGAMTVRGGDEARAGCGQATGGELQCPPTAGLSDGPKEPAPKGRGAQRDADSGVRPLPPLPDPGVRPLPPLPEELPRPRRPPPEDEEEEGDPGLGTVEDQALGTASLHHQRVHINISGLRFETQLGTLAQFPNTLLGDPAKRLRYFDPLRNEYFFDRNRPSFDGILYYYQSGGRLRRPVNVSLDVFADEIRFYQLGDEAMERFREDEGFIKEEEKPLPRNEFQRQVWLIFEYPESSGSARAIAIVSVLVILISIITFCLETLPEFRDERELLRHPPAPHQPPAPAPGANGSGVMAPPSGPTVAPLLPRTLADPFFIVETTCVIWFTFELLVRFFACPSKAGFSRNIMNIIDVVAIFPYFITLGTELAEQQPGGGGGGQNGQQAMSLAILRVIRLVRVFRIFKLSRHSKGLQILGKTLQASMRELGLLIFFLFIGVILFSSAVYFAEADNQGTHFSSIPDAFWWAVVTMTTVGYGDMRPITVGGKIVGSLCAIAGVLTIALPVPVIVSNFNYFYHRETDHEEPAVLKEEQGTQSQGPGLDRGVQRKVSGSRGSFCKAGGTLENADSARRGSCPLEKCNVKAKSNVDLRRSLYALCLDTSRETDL
# experimentSummary: Kv1.5 Autopatch Electrophysiology
# Format: cell-based
# testParameters: 1 μM compound; CHO cells stably transfected with human Kv1.5; AutoPatch whole cell mode; room temperature; read-out: Kv 1.5% Inhibition at 1 μM
quantity: inhibition at 1 µM (%)

Sample records with inhibition at 1 µM:
{"columns": ["smilesData", "measValue"],
 "data": [
  ["Fc1ccc(-c2csc3ccnc(NCc4ccco4)c23)cc1", 70.4],
  ["Cc1ccc(-c2csc3c(-c4ccc(O)cc4)cnc(NCc4ccccc4)c23)cc1", 39.9],
  ["Cc1ccc(-c2csc3c(-c4cccc(C(=O)O)c4)cnc(NCc4ccccc4)c23)cc1", 84.8],
  ["c1ccc(-c2csc3ccnc(NCc4ccccn4)c23)cc1", 59.6],
  ["Fc1ccc(-c2csc3ccnc(NCc4ccc5c(c4)OCCO5)c23)cc1", 86.1]
]}

a = c1ccc(CNc2nccc3scc(-c4ccc5c(c4)OCO5)c23)cc1
b = Cc1ccc(-c2csc3c(-c4ccccc4F)cnc(NCc4ccccc4)c23)cc1
Hello, I am sorting some records. Could you say if a or b has the smaller inhibition at 1 µM value? # respond with the chosen item's label
b

----------
# subjectOfTest: human Kv1.3 (Homo sapiens, UniProt P22001)
# Construct: expressed in transfected cells; host or cells: stably transfected cells
# Sequence (P22001 whole entry): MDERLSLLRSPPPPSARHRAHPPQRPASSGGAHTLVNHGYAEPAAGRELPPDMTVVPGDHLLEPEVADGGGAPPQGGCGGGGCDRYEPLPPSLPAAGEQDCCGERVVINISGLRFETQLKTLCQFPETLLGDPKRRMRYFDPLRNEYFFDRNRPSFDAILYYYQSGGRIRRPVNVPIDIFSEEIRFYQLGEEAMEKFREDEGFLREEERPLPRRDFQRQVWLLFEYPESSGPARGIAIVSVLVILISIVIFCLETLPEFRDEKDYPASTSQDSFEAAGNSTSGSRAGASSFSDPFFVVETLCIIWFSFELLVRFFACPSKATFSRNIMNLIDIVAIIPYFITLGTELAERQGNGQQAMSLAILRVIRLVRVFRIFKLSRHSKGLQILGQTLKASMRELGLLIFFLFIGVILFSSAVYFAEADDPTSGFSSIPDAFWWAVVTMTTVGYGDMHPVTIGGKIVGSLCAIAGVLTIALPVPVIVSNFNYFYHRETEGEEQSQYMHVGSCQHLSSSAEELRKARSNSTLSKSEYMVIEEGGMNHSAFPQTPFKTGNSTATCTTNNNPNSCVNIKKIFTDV
# experimentSummary: Kv1.3 Autopatch Electrophysiology
# Type: cell-based
# testParameters: 1 μM compound; CHO cells stably transfected with human Kv1.3; AutoPatch whole cell mode; room temperature; read-out: Kv 1.3% Inhibition at 1 μM
quantity: inhibition at 1 µM (%)

Consider the following illustrative entries.
{"columns": ["compound", "inhibition at 1 µM / %"],
 "data": [
  ["COc1cccc(-c2csc3ccnc(NCc4ccco4)c23)c1 [Example 28]", 72.7],
  ["c1cc2scc(-c3ccc4c(c3)OCO4)c2c(NCc2ccc3c(c2)OCCO3)n1 [Example 20]", 83.5],
  ["Cc1ccc(-c2csc3c(-c4cccc(O)c4)cnc(NCc4ccccc4)c23)cc1 [Example 36]", 15.5]
]}

A = COc1cccc(-c2csc3ccnc(NCc4cccs4)c23)c1 [Example 13]
B = Cc1ccc(-c2csc3c(-c4ccccc4O)cnc(NCc4ccccc4)c23)cc1 [Example 35]
Out of A and B , name the one with the higher inhibition at 1 µM. Identify your selection by its label.
A
